tested on: MALME-3M melanoma; experiment: NCI tumour cell line growth inhibition, 48 h
Quick reference: TGI of the listed items.

Please review the entries below; each comes with its answer.
N#CC1C(=O)SC2c3ccccc3C(=O)c3ccccc3C12 (stereo not given) = > 10 µM
COc1cc2nc(-c3cccs3)nc(N3CCN(c4ccccc4C(F)(F)F)CC3)c2cc1OC = > 100 µM
c1cc(N2CCCN(c3ccc(C4=NCCCN4)cc3)CC2)ccc1C1=NCCCN1 = > 100 µM
COc1ccccc1C(O)(c1ccccc1)C(O)(c1ccccc1)c1ccccc1OC (stereo not given) = > 100 µM

Then this molecule:
Input line: Query: TGI; subject: C#CCOCn1cnc2c(Sc3c([N+](=O)[O-])ncn3C)ncnc21
Output line: > 100 µM

* * *

test system: COLO 205 colon; experiment: NCI tumour cell line growth inhibition, 48 h
*1 amine or outer side, *2 acyl side, *3 side chain or, on linkers, in order; H or OH if unused. Where a SMILES comes first, the peptide text is derived from it. Bridges are numbered along the chain shown (N, C = ends). Roman numbers before positions name the chains, in order. [ ]: non-standard residue; d: D form. Actinocin(9to1) = Cc1c2oc3c(C)ccc(C(=O)[*:1])c3nc-2c(C(=O)[*:2])c(N)c1=O; NMeT = CN[CH](C(=O)O)[CH](C)O; Sar = CNCC(=O)O
ASSAY ENDPOINT: TGI

CC(C)C[C@H](NC(=O)Cn1ccc(NCc2ccccc2)cc1=O)B(O)O = > 100 µM

Input line: Query: TGI; subject: Cc1c2oc3c(C)ccc(C(=O)NC4C(=O)NC(C(C)C)C(=O)N5CCCC5C(=O)N(C)CC(=O)N(C)C(C(C)O)C(=O)OC4C)c3nc-2c(C(=O)NC2C(=O)NC(C(C)C)C(=O)N3CCCC3C(=O)N(C)CC(=O)N(C)C(C(C)O)C(=O)OC2C)c(N)c1=O (centres undefined) (I: TVP[Sar][NMeT] / II: TVP[Sar][NMeT]; ester I:1-I:C, II:1-II:C; linker I:N-II:N via Actinocin(9to1); configuration not given here)
Output line: > 36.8 µM

Input line: Query: TGI; subject: CC(C)(C)[Si](C)(C)Oc1cc(CO)cc2c1cc(=N)o[n+]2[O-]
Output line: > 10 µM

Input line: Query: TGI; subject: CC[C@@H]1C(=O)OC[C@@H]1Cc1cncn1C
Output line: > 100 µM

Input line: Query: TGI; subject: O=[N+]([O-])c1ccc(N=Nc2c(O)ccc3ccccc23)c([N+](=O)[O-])c1
Output line: > 100 µM

Input line: Query: TGI; subject: COc1ccc(-c2cc(-c3cccn3C)c(C#N)c(=O)[nH]2)cc1OC
Output line: > 100 µM

Input line: Query: TGI; subject: COc1ccc(/C(COc2ccc3c(=O)c(-c4ccccc4)coc3c2)=N\O)cc1
Output line: > 36.3 µM

Input line: Query: TGI; subject: CC(=O)OC1CCn2nnc(CO)c21 (centres undefined)
Output line: > 100 µM

Input line: Query: TGI; subject: COc1cc2nc(-c3cccs3)nc(N3CCN(c4ccccc4C(F)(F)F)CC3)c2cc1OC
Output line: > 100 µM

* * *

Quick reference: TGI of the listed items.
system: OVCAR-4 ovarian; experiment: NCI tumour cell line growth inhibition, 48 h

CS(=O)(=O)CCNCc1ccc(-c2ccc3ncnc(Nc4ccc(OCc5ccccc5)c(Br)c4)c3c2)o1 = > 25 µM
CCN1C(=O)C(=C/C=C/C=C2/N(C)c3ccccc3C2(C)C)C(=O)N(CC)C1=S = > 100 µM
C=CC1CCC[N+]1(CC(=O)OCC)Cc1ccccc1 (stereo not given) = > 100 µM
CC[C@@H]1C(=O)OC[C@@H]1Cc1cncn1C = > 100 µM

Then this molecule:
Input line: Please state recorded TGI (tested on OVCAR-4 ovarian) of Cc1cccc(C)c1NC(=O)C(=O)CC(=O)/C=C/c1ccccc1
Output line: > 100 µM

* * *

tested on: SF-268 CNS; experiment: NCI tumour cell line growth inhibition, 48 h
Quick reference: TGI of the listed items.

COc1ccc(-c2cc(-c3ccc(Cl)cc3)nc(SCCCC(=O)NO)n2)cc1 = 4.27 µM
C=C1C(=O)O[C@@H]2[C@@H]3O[C@@H](C[C@@H]13)[C@](C)(O)CC/C=C(\C)CCC[C@@H]2C = 43.9 µM
CCN1C(=O)C(=C/C=C/C=C2/N(C)c3ccccc3C2(C)C)C(=O)N(CC)C1=S = > 100 µM

Input line: Query: TGI; subject: CC1=C(C(=O)Nc2ccc(Cl)c(Cl)c2)C(c2cccc(Cl)c2)NC(=O)N1 (stereo unspecified)
Output line: 17.4 µM

Input line: Query: TGI; subject: COC(=O)c1cc2c3ccccc3n3c(=O)c4cc5ccccc5nc4c(n1)c23
Output line: > 100 µM

Input line: Query: TGI; subject: CSC1=Nc2ccccc2-c2nc3ccccc3cc2C1
Output line: > 100 µM

* * *

system: UACC-62 melanoma; assay: NCI tumour cell line growth inhibition, 48 h
Quick reference: TGI of the listed items.
Numeric only. Scale: µM

Input line: Query: TGI; subject: CCCSc1ccc2[nH]c(/N=C/c3ccccc3)cc2c1
Output line: 35

* * *

system: SN12C renal; test: NCI tumour cell line growth inhibition, 48 h
ASSAY ENDPOINT: TGI

Please review the entries below; each comes with its answer.
COc1cccc(/C=C2\CCCc3ccccc3C2=O)c1 = 33 µM
COc1c(OC(C)C)c(OC(C)C)c2oc(=O)n3c2c1C(c1ccccc1-n1c(C)ccc1C)C=C3 (configuration not stated) = > 100 µM
C=C1C(C2(C)C(OC(C)=O)CC(=O)OC(C)(COC(C)=O)C2CC(=O)OC)C(OC=O)C(OC(=O)C(O)C(C)CC)C2(C)C(c3ccoc3)CC(=O)C12O (configuration not stated) = > 100 µM
COc1ccc(NC(=O)CC/C(CC(=O)C(C)(C)C)=N\NC(=O)C(=O)NN)cc1 = > 100 µM
O=C1c2ccccc2C(=O)N1CC1S(=O)(=O)OCCOS1(=O)=O = > 100 µM
NC[C@H]1Nc2ccccc2[C@@H](O)C1O (some centres not stated) = > 100 µM

Input line: Query: TGI; subject: CCOc1ccc(N=Cc2ccc3cc(C)ccc3n2)cc1
Output line: > 100 µM

Input line: Query: TGI; subject: COc1ccc(-c2cc(=O)c3ccccc3o2)cc1N
Output line: > 100 µM

Input line: Query: TGI; subject: C[C@@H](O)[C@H](NC(=O)N[C@@H](CC(N)=O)c1nc([C@@H](N)CO)no1)C(=O)O
Output line: > 100 µM

Input line: Query: TGI; subject: COc1ccc(-c2c3c(cc4cc5c(cc24)OCO5)C(=O)OC3)cc1OC
Output line: > 53.1 µM

Input line: Query: TGI; subject: Cc1cc(O)cc2c1[C@]1(C)CCC3C(C)(C)CCC[C@]3(C)[C@H]1C2 (some centres not stated)
Output line: 32.3 µM

Input line: Query: TGI; subject: C1CCCCC2(CCCCCCCCC3(CCC1)OCCO3)OCCO2
Output line: > 100 µM

* * *

test system: RPMI-8226 leukemia; experiment: NCI tumour cell line growth inhibition, 48 h
Quick reference: TGI of the listed items.

Please review the entries below; each comes with its answer.
COc1ccc(N2C(=O)[C@H]3[C@H]4CC(C(C)(C)C)CC[C@H]4c4c(n(C)c5ccccc45)[C@H]3C2=O)cc1 (some centres undefined) = > 100 µM
COc1cc(/C=C2\N=C(c3ccccc3)N(c3nc4cc(C)c(C)cc4s3)C2=O)ccc1O = > 100 µM
c1cc(N2CCCN(c3ccc(C4=NCCCN4)cc3)CC2)ccc1C1=NCCCN1 = > 100 µM

Then this compound:
Input line: Query: TGI; subject: COc1c(OC(C)C)c(OC(C)C)c2oc(=O)n3c2c1C(c1ccccc1-n1c(C)ccc1C)C=C3 (centres undefined)
Output line: > 100 µM

* * *

system: RPMI-8226 leukemia; assay: NCI tumour cell line growth inhibition, 48 h
ASSAY ENDPOINT: TGI

Please review the entries below; each comes with its answer.
CC1=C(C(=O)Nc2cc(=O)n(C)c(=O)n2C)C(c2cccc([N+](=O)[O-])c2)C(C(=O)Nc2cc(=O)n(C)c(=O)n2C)=C(C)N1 = > 100 µM
COc1ccc(NC(=O)CC/C(CC(=O)C(C)(C)C)=N\NC(=O)C(=O)NN)cc1 = > 100 µM

Input line: Please state recorded TGI (tested on RPMI-8226 leukemia) of O=C(O)NC(c1ccccc1)C(NC(=O)c1ccccc1)c1ccccc1 (stereo unspecified)
Output line: > 100 µM

Input line: Please state recorded TGI (tested on RPMI-8226 leukemia) of CCC(C(=O)C(=O)C(CC)P1(=O)OC(C)(C)CN1C(C)(C)C)P1(=O)OC(C)(C)CN1C(C)(C)C (stereo unspecified)
Output line: > 100 µM

Input line: Please state recorded TGI (tested on RPMI-8226 leukemia) of NC(=O)c1cc2ccc(O)cc2o/c1=N/NC(=O)c1ccccc1
Output line: > 100 µM

Input line: Please state recorded TGI (tested on RPMI-8226 leukemia) of COC(=O)c1ccc(NC(=O)O/N=C(\Cl)C(C)C)cc1
Output line: 4.47 µM

Input line: Please state recorded TGI (tested on RPMI-8226 leukemia) of CC1CN=C(Nc2ccccc2)S1 (stereo unspecified)
Output line: > 100 µM
